Give viability at 28.5 h, 10 µM for every item shown.
- assay-overview: in vitro
- run-parameters: human, hela cells, % viability
Note: unit % is implicit; provide only the numeric part.

Exercise: Look up viability at 28.5 h, 10 µM: CC(=O)Nc1ccc(-c2cccc(COC3CCN(C(=O)Cc4ccc(C#N)cc4)CC3)c2)cc1
Key: 101

Exercise: Look up viability at 28.5 h, 10 µM: O=C(CSc1nc2sc3c(c2c(=O)n1-c1ccccc1)CCCC3)NCCc1ccccc1
Key: 93.7

Exercise: Look up viability at 28.5 h, 10 µM: Cn1nc(C2CC2)cc1NC(=O)NCC1CCN(c2ccccc2F)C1 (stereo not shown)
Key: 85.2

Exercise: Look up viability at 28.5 h, 10 µM: Cc1cc2cc(C(=O)N3CCC(c4c(C(=O)NC(C)C)sc5ccccc45)C3)ccc2o1 (stereo not shown)
Key: 87.1

Exercise: Look up viability at 28.5 h, 10 µM: Cc1csc(S(=O)(=O)Cc2nnc(C)n2C2CC2)n1
Key: 98.4

Exercise: Look up viability at 28.5 h, 10 µM: CCNS(=O)(=O)c1ccc(Cn2nc(NC(=O)C3COc4ccccc4O3)c3ccccc32)cc1 (stereo not shown)
Key: 109

Exercise: Look up viability at 28.5 h, 10 µM: Cc1cc(O)ccc1-c1cncc(-c2ccc(O)cc2C)n1
Key: 90.5

Exercise: Look up viability at 28.5 h, 10 µM: NS(=O)(=O)c1ccc(-c2ccc(/C=C3/SC(=S)N(C4CCCCC4)C3=O)o2)cc1
Key: 88

Exercise: Look up viability at 28.5 h, 10 µM: CC(=O)Nc1cccc(-c2cnc3[nH]c(=O)n([C@H](C)c4ccccc4)c3n2)c1
Key: 95.9

Exercise: Look up viability at 28.5 h, 10 µM: Cc1nn(C)cc1-c1cncn1CC(C)N1CCC(C)CC1 (stereo not shown)
Key: 91.4

Exercise: Look up viability at 28.5 h, 10 µM: COc1ccccc1OCC(=O)N1CCC2(CCNC2)C1 (stereo not shown) [CBK156703C]
Key: 99.6

Exercise: Look up viability at 28.5 h, 10 µM: O=C(CN1CCC(C(O)C(=O)NC2CC2)CC1)Nc1cc(Cl)ccc1F (stereo not shown)
Key: 93.4

Exercise: Look up viability at 28.5 h, 10 µM: O=C(Nc1ccc2c(c1)oc1ccccc12)C1CCCO1 (stereo not shown)
Key: 81.9

Exercise: Look up viability at 28.5 h, 10 µM: O=C(O)CCCC(=O)Nc1ccc([N+](=O)[O-])cc1O
Key: 102

Exercise: Look up viability at 28.5 h, 10 µM: CN1CCC(N2CCN(C(=O)Nc3ccc(Cl)cc3)CC2)CC1
Key: 109

Exercise: Look up viability at 28.5 h, 10 µM: COc1ncc(-c2nccnc2NCc2cccs2)c(OC)n1
Key: 95.9

Exercise: Look up viability at 28.5 h, 10 µM: COCc1nc(C(=O)Nc2ccc(NC(C)=O)cc2C(F)(F)F)cs1
Key: 107

Exercise: Look up viability at 28.5 h, 10 µM: CCOC(=O)c1ccc(N2C(=O)CC(N3CCCc4ccccc43)C2=O)cc1 (stereo not shown)
Key: 109

Exercise: Look up viability at 28.5 h, 10 µM: O=C(NC(=S)N1C[C@@H]2C[C@@H](C1)c1cccc(=O)n1C2)c1ccco1
Key: 110
